Provide the recorded IC50 for the entries that follow.
- ASSAY TARGET: Glutaminase kidney isoform, mitochondrial (Homo sapiens)
- Sequence (O94925 whole entry): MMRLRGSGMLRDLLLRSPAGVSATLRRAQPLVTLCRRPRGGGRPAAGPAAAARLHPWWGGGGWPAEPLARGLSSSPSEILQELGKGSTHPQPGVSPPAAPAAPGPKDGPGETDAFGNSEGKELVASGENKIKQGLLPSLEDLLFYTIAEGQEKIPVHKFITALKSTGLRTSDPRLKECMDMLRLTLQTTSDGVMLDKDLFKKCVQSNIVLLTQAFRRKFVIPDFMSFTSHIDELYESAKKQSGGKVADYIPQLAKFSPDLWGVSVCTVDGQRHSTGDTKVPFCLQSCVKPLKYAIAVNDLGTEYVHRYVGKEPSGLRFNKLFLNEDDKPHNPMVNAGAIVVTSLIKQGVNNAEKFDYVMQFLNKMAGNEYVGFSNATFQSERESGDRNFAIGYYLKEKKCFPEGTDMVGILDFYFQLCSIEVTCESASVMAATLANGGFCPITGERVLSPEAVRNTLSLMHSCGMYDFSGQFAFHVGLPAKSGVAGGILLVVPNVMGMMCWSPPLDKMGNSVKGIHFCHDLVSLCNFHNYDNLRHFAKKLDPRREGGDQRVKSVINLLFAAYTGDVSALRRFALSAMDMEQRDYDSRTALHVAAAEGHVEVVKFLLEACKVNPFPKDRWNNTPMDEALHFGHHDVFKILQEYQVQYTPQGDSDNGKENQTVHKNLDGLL
- MEASUREMENT PROTOCOL: Inhibition of human KGA preincubated for 15 to 30 mins followed by substrate addition and measured after 3 to 4 hrs by GDH-EZMTT reagent-based GDH coupled assay

[ask] Specify measured IC50 for Nc1nnc(CCSCCc2nnc(NC(=O)CC34CC5CC(CC(C5)C3)C4)[se]2)[se]1 .
[reply] 300 nM

[ask] Specify measured IC50 for Cn1cc(CC(=O)Nc2nnc(CCSCCc3nnc(N)[se]3)[se]2)c2ccccc21 .
[reply] 1100 nM

[ask] Specify measured IC50 for COc1ccc2c(c1)c(CC(=O)Nc1nnc(CCCCc3ccc(NC(=O)Cc4cccc(OC(F)(F)F)c4)nn3)[se]1)cn2C .
[reply] 10 nM

[ask] Specify measured IC50 for Nc1nnc(CCCCc2nnc(NC(=O)Cc3ccccc3)s2)s1 .
[reply] > 13000 nM

[ask] Specify measured IC50 for COc1ccc(Nc2nnc(CCSCCc3nnc(Nc4ccc(OC)cc4)[se]3)[se]2)cc1 .
[reply] > 13000 nM

[ask] Specify measured IC50 for O=C(Cc1cccc(OC(F)(F)F)c1)Nc1ccc(CCCCc2nnc(NC(=O)Cn3cc(F)c(=O)[nH]c3=O)[se]2)nn1 .
[reply] 20 nM

[ask] Specify measured IC50 for Cn1cc(CC(=O)Nc2nnc(CCSCCc3nnc(N)s3)s2)c2ccccc21 .
[reply] 1400 nM

[ask] Specify measured IC50 for Nc1nnc(CCSCCc2nnc(NC(=O)C34CC5CC(CC(C5)C3)C4)[se]2)[se]1 .
[reply] 8000 nM

[ask] Specify measured IC50 for c1ccc(CNc2nnc(CCSCCc3nnc(NCc4ccccc4)[se]3)[se]2)cc1 .
[reply] > 13000 nM
